Values from ChEMBL document CHEMBL1159047

- Tested on: A2780
- RUN_DESCRIPTION: Growth inhibition of human A2780 cells at 30 uM after 96 hrs by SRB assay
- Format: functional, cell-based
Calls of active or inactive are those of the source. The calls are words filed in the database; no cut-off is given here.
MEASUREMENT_NAME: growth inhibition (GI)

INPUT_SMILES	OBS_VALUE
C=C(C)[C@@H]1CC[C@]2(/C=C/C(=O)OCC)CC[C@]3(C)[C@H](CC[C@@H]4[C@@]5(C)CC[C@H](OC(C)=O)C(C)(C)[C@@H]5CC[C@]43C)[C@@H]12	inactive
C=C(C)[C@@H]1CC[C@]2(/C=C3\CCOC3=O)CC[C@]3(C)[C@H](CC[C@@H]4[C@@]5(C)CC[C@H](OC(C)=O)C(C)(C)[C@@H]5CC[C@]43C)[C@@H]12	inactive
C=C(C)[C@@H]1CC[C@]2([C@@H]3O[C@@]34CCOC4=O)CC[C@]3(C)[C@H](CC[C@@H]4[C@@]5(C)CC[C@H](OC(C)=O)C(C)(C)[C@@H]5CC[C@]43C)[C@@H]12	inactive

====

- System: A2780
- RUN_DESCRIPTION: Cytotoxicity against human A2780 cells after 96 hrs by SRB assay
- Format: functional, cell-based
- EXPERIMENTAL_PARAMETERS: A2780, 96 h
pIC50: −log10 of the molar value.
# pIC50 values compiled below

INPUT_SMILES	pIC50
C=C(C)[C@@H]1CC[C@]2([C@@H]3O[C@H]3C(=O)N(CC)CC)CC[C@]3(C)[C@H](CC[C@@H]4[C@@]5(C)CC[C@H](OC(C)=O)C(C)(C)[C@@H]5CC[C@]43C)[C@@H]12	5.33
C=C(C)[C@@H]1CC[C@]2([C@H](O)CC(=O)CC(=O)OCC)CC[C@]3(C)[C@H](CC[C@@H]4[C@@]5(C)CC[C@H](OC(C)=O)C(C)(C)[C@@H]5CC[C@]43C)[C@@H]12	5.04
C=C(C)[C@@H]1CC[C@]2([C@H](O)CC(=O)CC(=O)OCC)CC[C@]3(C)[C@H](CC[C@@H]4[C@@]5(C)CC[C@H](OC)C(C)(C)[C@@H]5CC[C@]43C)[C@@H]12	4.92

====

- Test system: A2780
- RUN_DESCRIPTION: Cytotoxicity against human A2780 cells after 96 hrs by SRB assay
- Assay type: functional, cell-based
- EXPERIMENTAL_PARAMETERS: A2780, 96 h
MEASUREMENT_NAME: IC50

COMPOUND	OBS_VALUE
C=C(C)[C@@H]1CC[C@]2(C(=O)CC(=O)OCC)CC[C@]3(C)[C@H](CC[C@@H]4[C@@]5(C)CC[C@H](OC(C)=O)C(C)(C)[C@@H]5CC[C@]43C)[C@@H]12	1.8 µM
C=C(C)[C@@H]1CC[C@]2(C(=O)[C@H]3CCOC3=O)CC[C@]3(C)[C@H](CC[C@@H]4[C@@]5(C)CC[C@H](OC(C)=O)C(C)(C)[C@@H]5CC[C@]43C)[C@@H]12 (mixture of isomers)	6.4 µM
C=C(C)[C@@H]1CC[C@]2(C(=O)CC(=O)OCC)CC[C@]3(C)[C@H](CC[C@@H]4[C@@]5(C)CC[C@H](OC)C(C)(C)[C@@H]5CC[C@]43C)[C@@H]12	4.3 µM
CCOC(=O)CC(=O)C[C@H]1O[C@@H]2[C@@H]3[C@H]4CC[C@@H]5[C@@]6(C)CC[C@H](OC(C)=O)C(C)(C)[C@@H]6CC[C@@]5(C)[C@]4(C)CC[C@@]31CCC2(C)C	4.7 µM
C=C(C)[C@@H]1CC[C@]2([C@H](O)[C@H]3CCOC3=O)CC[C@]3(C)[C@H](CC[C@@H]4[C@@]5(C)CC[C@H](OC(C)=O)C(C)(C)[C@@H]5CC[C@]43C)[C@@H]12	12.4 µM
C=C(C)[C@@H]1CC[C@]2([C@H](O)[C@H]3C=CC(=O)O3)CC[C@]3(C)[C@H](CC[C@@H]4[C@@]5(C)CC[C@H](OC(C)=O)C(C)(C)[C@@H]5CC[C@]43C)[C@@H]12	8.8 µM
C=C(C)[C@@H]1CC[C@]2([C@@H]3CO3)CC[C@]3(C)[C@H](CC[C@@H]4[C@@]5(C)CC[C@H](O)C(C)(C)[C@@H]5CC[C@]43C)[C@@H]12	28.2 µM
C=C(C)[C@@H]1CC[C@]2([C@@H]3O[C@H]3C(=O)OC)CC[C@]3(C)[C@H](CC[C@@H]4[C@@]5(C)CC[C@H](OC(C)=O)C(C)(C)[C@@H]5CC[C@]43C)[C@@H]12	12.3 µM
C=C(C)[C@@H]1CC[C@]2([C@H](O)CC(=O)OCC)CC[C@]3(C)[C@H](CC[C@@H]4[C@@]5(C)CC[C@H](OC(C)=O)C(C)(C)[C@@H]5CC[C@]43C)[C@@H]12	21 µM
CCOC(=O)C[C@H]1O[C@@H]2[C@@H]3[C@H]4CC[C@@H]5[C@@]6(C)CC[C@H](OC(C)=O)C(C)(C)[C@@H]6CC[C@@]5(C)[C@]4(C)CC[C@@]31CCC2(C)C	11.9 µM

====

- Test system: 518A2
- RUN_DESCRIPTION: Growth inhibition of human 518A2 cells at 30 uM after 96 hrs by SRB assay
- Type: functional, cell-based
Activity calls are given as the source filed them. The rule behind the calls is not given here.
MEASUREMENT_NAME: growth inhibition (GI)

INPUT_SMILES	MEASUREMENT_NAME	OBS_VALUE
C=C(C)[C@@H]1CC[C@]2([C@@H]3O[C@@]34CCOC4=O)CC[C@]3(C)[C@H](CC[C@@H]4[C@@]5(C)CC[C@H](OC(C)=O)C(C)(C)[C@@H]5CC[C@]43C)[C@@H]12	growth inhibition (GI)	inactive
C=C(C)[C@@H]1CC[C@]2([C@@H]3O[C@@H]3C#N)CC[C@]3(C)[C@H](CC[C@@H]4[C@@]5(C)CC[C@H](OC(C)=O)C(C)(C)[C@@H]5CC[C@]43C)[C@@H]12	growth inhibition (GI)	inactive
C=C(C)[C@@H]1CC[C@]2([C@H]3CO3)CC[C@]3(C)[C@H](CC[C@@H]4[C@@]5(C)CC[C@H](O)C(C)(C)[C@@H]5CC[C@]43C)[C@@H]12	growth inhibition (GI)	inactive
C=C(C)[C@@H]1CC[C@]2(/C=C/C(=O)OCC)CC[C@]3(C)[C@H](CC[C@@H]4[C@@]5(C)CC[C@H](OC(C)=O)C(C)(C)[C@@H]5CC[C@]43C)[C@@H]12	growth inhibition (GI)	inactive
C=C(C)[C@@H]1CC[C@]2([C@@H]3O[C@H]3C(=O)OC)CC[C@]3(C)[C@H](CC[C@@H]4[C@@]5(C)CC[C@H](OC(C)=O)C(C)(C)[C@@H]5CC[C@]43C)[C@@H]12	growth inhibition (GI)	inactive
C=C(C)[C@@H]1CC[C@]2(/C=C/C(=O)OCC)CC[C@]3(C)[C@H](CC[C@@H]4[C@@]5(C)CC[C@H](OC)C(C)(C)[C@@H]5CC[C@]43C)[C@@H]12	growth inhibition (GI)	inactive
C=C(C)[C@@H]1CC[C@]2(/C=C3\CCOC3=O)CC[C@]3(C)[C@H](CC[C@@H]4[C@@]5(C)CC[C@H](OC(C)=O)C(C)(C)[C@@H]5CC[C@]43C)[C@@H]12	growth inhibition (GI)	inactive

====

- System: SW480
- RUN_DESCRIPTION: Growth inhibition of human SW480 cells at 30 uM after 96 hrs by SRB assay
- Type: functional, cell-based
Activity calls are given as the source filed them. No cut-off for these calls is given here.
MEASUREMENT_NAME: growth inhibition (GI)

INPUT_SMILES	OBS_VALUE
C=C(C)[C@@H]1CC[C@]2(/C=C/C(=O)OCC)CC[C@]3(C)[C@H](CC[C@@H]4[C@@]5(C)CC[C@H](OC)C(C)(C)[C@@H]5CC[C@]43C)[C@@H]12	inactive
C=C(C)[C@@H]1CC[C@]2([C@@H]3O[C@@]34CCOC4=O)CC[C@]3(C)[C@H](CC[C@@H]4[C@@]5(C)CC[C@H](OC(C)=O)C(C)(C)[C@@H]5CC[C@]43C)[C@@H]12	inactive
C=C(C)[C@@H]1CC[C@]2([C@@H]3O[C@H]3C(=O)OC)CC[C@]3(C)[C@H](CC[C@@H]4[C@@]5(C)CC[C@H](OC(C)=O)C(C)(C)[C@@H]5CC[C@]43C)[C@@H]12	inactive

====

- System: A549
- RUN_DESCRIPTION: Growth inhibition of human A549 cells at 30 uM after 96 hrs by SRB assay
- Type: functional, cell-based
Activity calls are given as the source filed them. No cut-off for these calls is given here.
MEASUREMENT_NAME: growth inhibition (GI)

INPUT_SMILES	OBS_VALUE
C=C(C)[C@@H]1CC[C@]2([C@@H]3O[C@@]34CCOC4=O)CC[C@]3(C)[C@H](CC[C@@H]4[C@@]5(C)CC[C@H](OC(C)=O)C(C)(C)[C@@H]5CC[C@]43C)[C@@H]12	inactive
C=C(C)[C@@H]1CC[C@]2([C@@H]3CO3)CC[C@]3(C)[C@H](CC[C@@H]4[C@@]5(C)CC[C@H](O)C(C)(C)[C@@H]5CC[C@]43C)[C@@H]12	inactive
C=C(C)[C@@H]1CC[C@]2([C@H](O)CC(=O)OCC)CC[C@]3(C)[C@H](CC[C@@H]4[C@@]5(C)CC[C@H](OC)C(C)(C)[C@@H]5CC[C@]43C)[C@@H]12	inactive
C=C(C)[C@@H]1CC[C@]2([C@@H]3O[C@H]3C(=O)OC)CC[C@]3(C)[C@H](CC[C@@H]4[C@@]5(C)CC[C@H](OC(C)=O)C(C)(C)[C@@H]5CC[C@]43C)[C@@H]12	inactive
C=C(C)[C@@H]1CC[C@]2(/C=C/C(=O)OCC)CC[C@]3(C)[C@H](CC[C@@H]4[C@@]5(C)CC[C@H](OC(C)=O)C(C)(C)[C@@H]5CC[C@]43C)[C@@H]12	inactive
C=C(C)[C@@H]1CC[C@]2([C@H]3CO3)CC[C@]3(C)[C@H](CC[C@@H]4[C@@]5(C)CC[C@H](O)C(C)(C)[C@@H]5CC[C@]43C)[C@@H]12	inactive
